# target: PRMT5 (Homo sapiens, UniProt O14744)
# Construct: purchased Viva (custom protein)
# Sequence (O14744 whole entry): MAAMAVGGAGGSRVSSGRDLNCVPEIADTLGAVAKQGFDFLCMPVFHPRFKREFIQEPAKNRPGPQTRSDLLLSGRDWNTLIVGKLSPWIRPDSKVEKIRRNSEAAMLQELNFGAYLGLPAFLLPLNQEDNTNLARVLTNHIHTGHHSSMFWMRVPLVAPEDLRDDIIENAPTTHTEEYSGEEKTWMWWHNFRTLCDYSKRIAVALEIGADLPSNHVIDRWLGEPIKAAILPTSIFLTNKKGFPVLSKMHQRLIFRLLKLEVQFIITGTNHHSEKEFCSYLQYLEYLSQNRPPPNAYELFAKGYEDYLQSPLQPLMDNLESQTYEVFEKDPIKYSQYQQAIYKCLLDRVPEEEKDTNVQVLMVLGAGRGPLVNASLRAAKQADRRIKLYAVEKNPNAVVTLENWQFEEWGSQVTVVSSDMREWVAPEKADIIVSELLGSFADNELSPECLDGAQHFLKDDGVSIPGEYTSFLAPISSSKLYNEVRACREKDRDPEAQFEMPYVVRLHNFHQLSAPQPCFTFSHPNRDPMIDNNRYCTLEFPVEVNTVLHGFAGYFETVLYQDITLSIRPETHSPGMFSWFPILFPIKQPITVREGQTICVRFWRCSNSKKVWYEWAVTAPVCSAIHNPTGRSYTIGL
# Sequence (Q9BQA1 whole entry partner): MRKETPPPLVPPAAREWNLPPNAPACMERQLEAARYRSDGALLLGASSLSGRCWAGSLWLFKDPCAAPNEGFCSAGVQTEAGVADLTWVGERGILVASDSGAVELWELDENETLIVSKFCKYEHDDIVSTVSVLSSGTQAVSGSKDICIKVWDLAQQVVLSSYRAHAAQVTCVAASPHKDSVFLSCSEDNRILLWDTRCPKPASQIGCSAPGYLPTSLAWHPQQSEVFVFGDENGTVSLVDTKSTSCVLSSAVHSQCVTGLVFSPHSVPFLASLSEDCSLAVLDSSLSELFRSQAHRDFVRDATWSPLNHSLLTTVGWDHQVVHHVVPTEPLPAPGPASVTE
# assay.method.text: PRMT5 biochemical IC50 assay with no cofactor
# measurement.parameters: PRMT5, no cofactor; read-out: No Cofactor/ rel IC50
observable: IC50

CCc1cc(NC(=O)C(=O)N2C[C@H](C)CC[C@H]2c2ccc(N3CCC4(CCCN(C)C4)CC3)cc2)cnc1N (single isomer, unassigned) : > 500 nM
Cc1cc(NC(=O)C(=O)N2CCCCC2C(C)C)cnc1N (racemic) : 50 to 500 nM
Cc1cc(NC(=O)C(=O)N2C[C@H](C)CC[C@H]2C2CCCC(C)(C)C2)cnc1N (mixture of isomers) : 50 to 500 nM
C[C@@H]1CC[C@@H](c2cccc(C(N)=O)c2)N(C(=O)C(=O)Nc2cncc(C(N)=O)c2)C1 (racemic) : 50 to 500 nM
CC(=O)Nc1cccc([C@@H]2CC[C@@H](C)CN2C(=O)C(=O)Nc2cncc(C)c2)c1 (racemic) : 50 to 500 nM

Could you tell me which IC50 is on file for Cc1ccc2cc([C@@H]3CC[C@@H](C)CN3C(=O)C(=O)Nc3cncc(C(N)=O)c3)ccc2n1 (racemic) ?
50 to 500 nM

Could you tell me which IC50 is on file for CCc1cc(NC(=O)C(=O)N2C[C@H](C)CC[C@H]2c2ccc3c(cnn3CCN(C)C)c2)cnc1N (single isomer, unassigned) ?
< 50 nM

* * *

Known pIC50 of a selection of compounds
# target: PRMT5 (Homo sapiens)
# Construct: purchased Viva (custom protein)
# assay.method.text: PRMT5 biochemical IC50 assay with SAM as cofactor
# measurement.parameters: PRMT5, SAM as cofactor; read-out: SAM IC50
pIC50: −log10 of the molar value.

Some solved cases for reference:
C[C@@H]1CC[C@@H](c2ccc3c(c2)C[C@@H](C)O3)N(C(=O)C(=O)Nc2cncc(C(N)=O)c2)C1 (single isomer, unassigned) : 6.30 to 7.30
CNc1ccc([C@H]2CC[C@H](C)CN2C(=O)C(=O)Nc2cncc(C(N)=O)c2)cc1 : > 7.30

Recorded pIC50 for C[C@@H]1CC[C@@H](c2ccncc2)N(C(=O)C(=O)Nc2cncc(C(N)=O)c2)C1 (single isomer, unassigned) with PRMT5 (Homo sapiens), please?
< 6.30

* * *

# Tested on: HAP1 MTAP-intact cell line
# assay.method.text: SDMA in-cell western assay, HAP1 MTAP-intact
# Type: cell-based
# measurement.parameters: Homo sapiens, HAP1, SDMA in-cell western, HAP1 MTAP-intact; read-out: MTAP HAP1 intact IC50
Known IC50 of a selection of molecules

Some solved cases for reference:
Cc1cc(NC(=O)C(=O)N2[C@@H](C)CCC[C@H]2c2ccccc2)cnc1N (racemic) [Compound 112] : 0.1 to 1 µM
Cc1cc([C@H]2CC[C@H](C)CN2C(=O)C(=O)Nc2cncc(C(N)=O)c2)ccn1 (single isomer, unassigned) [Compound 534] : > 1 µM
CCc1cc(NC(=O)C(=O)N2C[C@@H](C)CC[C@@H]2c2cccc(OC[C@@H](C)N(C)C)c2)cnc1N [Compound 1290] : 0.1 to 1 µM
Cc1cc(NC(=O)C(=O)N2C[C@H](C)CC[C@H]2c2cc3[nH]ncc3s2)cnc1N (racemic) [Compound 743] : 0.1 to 1 µM
CNc1ccc([C@H]2CC[C@@H](C)CN2C(=O)C(=O)Nc2cnc(OC)c(C(N)=O)c2)cn1 (single isomer, unassigned) [Compound 467] : > 1 µM

Could you tell me which IC50 is on file for C[C@@H]1CC[C@@H](c2ccc3c(c2)CCCN3)N(C(=O)C(=O)Nc2cncc(C(N)=O)c2)C1 (single isomer, unassigned) [Compound 432] ?
> 1 µM

Could you tell me which IC50 is on file for CCc1cc(NC(=O)C(=O)N2C[C@@H](C)CC[C@@H]2c2ccc(N3CCN(C)CC3)c(C)c2)cnc1N [Compound 1390] ?
0.1 to 1 µM

Could you tell me which IC50 is on file for C[C@@H]1CC[C@@H](c2cccc(C3CCC3)c2)N(C(=O)C(=O)Nc2cncc(C(N)=O)c2)C1 (racemic) [Compound 261] ?
> 1 µM

Could you tell me which IC50 is on file for CCc1cc(NC(=O)C(=O)N2C[C@@H](C)CC[C@@H]2c2ccc3sc(C(C)(C)N(C)C)nc3c2)cnc1N [Compound 1237] ?
< 0.1 µM

Could you tell me which IC50 is on file for C[C@@H]1CC[C@@H](c2ccc(-c3nccs3)cc2)N(C(=O)C(=O)Nc2cncc(C(N)=O)c2)C1 (single isomer, unassigned) [Compound 783] ?
> 1 µM

Could you tell me which IC50 is on file for Cc1cc(NC(=O)C(=O)N2C[C@@H](C)CC[C@@H]2c2ccc(-c3nccs3)cc2)cnc1N (single isomer, unassigned) [Compound 820] ?
0.1 to 1 µM

Could you tell me which IC50 is on file for C[C@@H]1CC[C@@H](c2ccnc(C(F)(F)F)c2)N(C(=O)C(=O)Nc2cncc(C(N)=O)c2)C1 (racemic) [Compound 221] ?
> 1 µM

Could you tell me which IC50 is on file for C[C@@H]1CC[C@@H](c2ccc3c(c2)CCO3)N(C(=O)C(=O)Nc2cncc(C(N)=O)c2)C1 (racemic) [Compound 282] ?
> 1 µM

Could you tell me which IC50 is on file for Cc1cc(NC(=O)C(=O)N2C[C@H](C)CC[C@H]2c2ccc(F)c(Cl)c2)cnc1N (single isomer, unassigned) [Compound 596] ?
0.1 to 1 µM

Could you tell me which IC50 is on file for CC(C)[C@@H]1CC[C@@H](C)CN1C(=O)C(=O)Nc1cncc(C(N)=O)c1 (racemic) [Compound 176] ?
> 1 µM

Could you tell me which IC50 is on file for Cc1cc(NC(=O)C(=O)N2C[C@@H](C)[C@@H](OC(C)C)C[C@@H]2c2ccccc2)cnc1N (single isomer, unassigned) [Compound 1302] ?
> 1 µM

Could you tell me which IC50 is on file for Cc1cc(NC(=O)C(=O)N2C[C@H](C)CC[C@H]2c2ccc3[nH]ncc3c2)cnc1C (single isomer, unassigned) [Compound 631] ?
> 1 µM

Could you tell me which IC50 is on file for C[C@@H]1CC[C@@H]([C@H]2CC[C@H](O)CC2)N(C(=O)C(=O)Nc2cncc(C(N)=O)c2)C1 (single isomer, unassigned) [Compound 395] ?
> 1 µM

Could you tell me which IC50 is on file for C[C@H]1CC[C@H](c2cccc(Cl)c2)N(C(=O)C(=O)Nc2cnc(N)c(C3CC3)c2)C1 (single isomer, unassigned) [Compound 1119] ?
0.1 to 1 µM

Could you tell me which IC50 is on file for COc1ncc(NC(=O)C(=O)N2C[C@H](C)[C@H](OC)C[C@H]2c2ccc3scnc3c2)cc1C(N)=O (single isomer, unassigned) [Compound 1364] ?
0.1 to 1 µM

Could you tell me which IC50 is on file for CCc1cc(NC(=O)C(=O)N2C[C@@H](C)CC[C@@H]2c2ccc3sc(C45CC(N(C)C)(C4)C5)nc3c2)cnc1N [Compound 1404] ?
< 0.1 µM

Could you tell me which IC50 is on file for C[C@H]1CC[C@H]([C@@H]2CCC[C@@H](O)C2)N(C(=O)C(=O)Nc2cncc(C(N)=O)c2)C1 (single isomer, unassigned) [Compound 520] ?
> 1 µM

Could you tell me which IC50 is on file for Cc1cc(NC(=O)C(=O)N2C[C@@H](C)CC[C@@H]2c2ccc3sc(C4CC(C)(C)N(C)C(C)(C)C4)nc3c2)cnc1C [Compound 1315] ?
0.1 to 1 µM

Could you tell me which IC50 is on file for C[C@@H]1CC[C@@H](c2ccc(Cl)c(F)c2)N(C(=O)C(=O)Nc2cncc(C(N)=O)c2)C1 (racemic) [Compound 327] ?
> 1 µM

Could you tell me which IC50 is on file for Cc1cc(NC(=O)C(=O)N2C[C@H](C)CC[C@H]2c2cccc3[nH]ncc23)cnc1N (single isomer, unassigned) [Compound 785] ?
0.1 to 1 µM

Where do these numbers come from? They come from patent US11999727B2.
